- Tested on: Rfc1
- assaySummary: Yeast two hybrid (Y2H) analysis of PCNA-partner interaction
- Format: binding
- Parameters: key: ++: major increase in growth; +: moderate increase in growth; similar growth as the WT PCNA-expressing cells; -: minor decrease in growth; --: moderate decrease in growth; ---: major decrease in growth
- runConditions: spotting onto selective agar plates; PCNA fused to AD, partner to BD
- Procedure: Y2H analysis was performed using the Yeast Two Hybrid Phagemid vector kit (Stratagene), following the manufacturer's instructions. […] For quantitative Y2H, the generation time of the indicated mutants and their respective partners were calculated from their growth curves in liquid SC-Leu-Trp-His media. […] O.D600 measurements of the cultures were taken at the indicated time; the generation time (τ) was calculated from the growth curves according to the equation ODt = OD0×2^t/τ. […]
observedProperty: Y2H growth relative to WT PCNA-expressing strain: Rfc1

[
  {
    "molecule": "pol30-Rad27E6: PCNA mutant evolved for Rad27, IDCL sequence DGDYDILKIREL (protein, left off: Gal4 activation domain, end not stated, kept) MLEAKFEEASLFKRIIDGFKDCVQLVNFQCKEDGIIAQAVDDSRVLLVSLEIGVEAFQEYRCDHPVTLGMDLTSLSKILRCGNNTDTLTLIADNTPDSIILLFEDTKKDRIAEYSLKLMDGDYDILKIRELQYDSTLSLPSSEFSKIVRDLSQLSDSINIMITKETIKFVADGDIGSGSVIIKPFVDMEHPETSIKLEMDQPVDLTFGAKYLLDIIKGSSLSDRVGIRLSSEAPALFQFDLKSGFLQFFLAPKFNDEE",
    "assayValue": "WT"
  },
  {
    "molecule": "pol30-Pol32E9 (protein, left off: Gal4 activation domain, end not stated, kept) MLEAKFEEASLFKRIIDGFKDCVQLVNFQCKEDGIIAQAVDDSRVLLVSLEIGVEAFQEYRCDHPVTLGMDLTSLSKILRCGNNTDTLTLIADNTPDSIILLFEDTKKDRIAEYSLKLMDNDVDSLKIIELQYDSTLSLPSSEFSKIVRDLSQLSDSINIMITKETIKFVADGDIGSGSVIIKPFVDMEHPETSIKLEMDQPVDLTFGAKYLLDIIKGSSLSDRVGIRLSSEAPALFQFDLKSGFLQFFLAPKFNDEE",
    "assayValue": "WT"
  },
  {
    "molecule": "pol30-Pol32E5: PCNA mutant evolved for Pol32, IDCL sequence DADNDFLKISEL (protein, left off: Gal4 activation domain, end not stated, kept) MLEAKFEEASLFKRIIDGFKDCVQLVNFQCKEDGIIAQAVDDSRVLLVSLEIGVEAFQEYRCDHPVTLGMDLTSLSKILRCGNNTDTLTLIADNTPDSIILLFEDTKKDRIAEYSLKLMDADNDFLKISELQYDSTLSLPSSEFSKIVRDLSQLSDSINIMITKETIKFVADGDIGSGSVIIKPFVDMEHPETSIKLEMDQPVDLTFGAKYLLDIIKGSSLSDRVGIRLSSEAPALFQFDLKSGFLQFFLAPKFNDEE",
    "assayValue": "WT"
  }
]
